Assay: Simple allometry prediction of human V and Cl of rutin
Design: species or system humans
Conditions: human, 70 kg, b exponent from the data, read-out: Cl, human parameter (experimental b) (converted)
reported_metric: clearance (mL/min)
Number in mL/min, nothing else.

Request: What does the record list as clearance for C[C@@H]1O[C@@H](OC[C@H]2O[C@@H](Oc3c(-c4ccc(O)c(O)c4)oc4cc(O)cc(O)c4c3=O)[C@H](O)[C@@H](O)[C@@H]2O)[C@H](O)[C@H](O)[C@H]1O [Pure Rutin, quercetin-3-O-rutinoside] ?
Result: 89.8

---

Assay: Noncompartmental PK of rutin after oral administration of pure rutin or P. peruviana extract
Format: in vivo, New Zealand White rabbits
Conditions: male, New Zealand White, rabbit, plasma, po; rutin; p.o.; pure rutin 100 mg/kg, extract equivalent to 7.4 mg/kg of rutin; NCA; mean ± SD, n = 5; read-out: λz (converted)
reported_metric: k el (s⁻¹)
Number in s⁻¹, nothing else.

Request: What does the record list as k el for C[C@@H]1O[C@@H](OC[C@H]2O[C@@H](Oc3c(-c4ccc(O)c(O)c4)oc4cc(O)cc(O)c4c3=O)[C@H](O)[C@@H](O)[C@@H]2O)[C@H](O)[C@H](O)[C@H]1O [Pure Rutin, quercetin-3-O-rutinoside] ?
Result: 6.5e-05

Data credit: paper PMC11510156
